target: Serine/threonine-protein kinase A-Raf (Homo sapiens); note: in the data inactive means no Kd found up to 30 µM
Sequence (P10398 whole entry): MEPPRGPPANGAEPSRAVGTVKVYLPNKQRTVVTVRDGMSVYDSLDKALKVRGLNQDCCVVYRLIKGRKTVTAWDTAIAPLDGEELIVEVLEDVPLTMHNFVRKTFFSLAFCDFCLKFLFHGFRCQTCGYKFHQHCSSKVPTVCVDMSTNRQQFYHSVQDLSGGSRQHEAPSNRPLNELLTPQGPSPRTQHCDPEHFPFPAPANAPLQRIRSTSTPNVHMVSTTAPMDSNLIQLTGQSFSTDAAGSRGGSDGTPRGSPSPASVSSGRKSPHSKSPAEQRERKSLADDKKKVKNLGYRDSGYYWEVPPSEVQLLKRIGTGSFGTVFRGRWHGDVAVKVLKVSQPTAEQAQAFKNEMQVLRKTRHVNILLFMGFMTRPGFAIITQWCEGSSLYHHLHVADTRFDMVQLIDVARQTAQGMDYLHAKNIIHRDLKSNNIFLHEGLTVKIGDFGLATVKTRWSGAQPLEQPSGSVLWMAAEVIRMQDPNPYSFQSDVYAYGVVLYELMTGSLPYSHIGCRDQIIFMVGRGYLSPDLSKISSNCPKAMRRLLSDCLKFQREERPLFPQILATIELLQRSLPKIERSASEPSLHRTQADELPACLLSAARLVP
Calls of active or inactive are those of the source.
Choose one outcome from this list and give only that: active, inactive

Past entries and their recorded results:
Molecule	Class assignment
Cc1cnc(NC(=O)Nc2cc(Br)c(C)cc2OC[C@@H]2CNCCO2)cn1	inactive
CO[C@H]1C[C@@H]2CC[C@@H](C)[C@@](O)(O2)C(=O)C(=O)N2CCCC[C@H]2C(=O)O[C@H]([C@H](C)C[C@@H]2CC[C@@H](O)[C@H](OC)C2)CC(=O)[C@H](C)/C=C(\C)[C@@H](O)[C@@H](OC)C(=O)[C@H](C)C[C@H](C)/C=C/C=C/C=C/1C	inactive
CN1CCN(CCOc2cc(OC3CCOCC3)c3c(Nc4c(Cl)ccc5c4OCO5)ncnc3c2)CC1	inactive
Cc1csc(-c2nnc(Nc3ccc(Oc4ncccc4-c4ccnc(N)n4)cc3)c3ccccc23)c1	inactive
Cc1cc(Nc2ncc(Cl)c(Nc3ccccc3S(=O)(=O)C(C)C)n2)c(OC(C)C)cc1C1CCNCC1	inactive

For this molecule, state the assay outcome: CNC(=O)c1cc(Oc2ccc(NC(=O)Nc3cc(C(C)(C)C)nn3-c3ccc4ncccc4c3)c(F)c2)ccn1
active

GET /call?item= N#CC1(c2ccc(NC(=O)c3cccnc3NCc3ccncc3)cc2)CCCC1 returns the recorded outcome of this test.
inactive

Look up the recorded call for C[C@H]1CNCCCN1S(=O)(=O)c1cccc2cncc(F)c12 in this test.
inactive

For this molecule, state the assay outcome: CO[C@H]1C[C@@H]2CC[C@@H](C)[C@@](O)(O2)C(=O)C(=O)N2CCCC[C@H]2C(=O)O[C@H]([C@H](C)C[C@@H]2CC[C@@H](OC(=O)C(C)(CO)CO)[C@H](OC)C2)CC(=O)[C@H](C)/C=C(\C)[C@@H](O)[C@@H](OC)C(=O)[C@H](C)C[C@H](C)/C=C/C=C/C=C/1C
inactive

----------
target: Nucleoside diphosphate kinase B (Homo sapiens, UniProt P22392); note: in the data inactive means no Kd found up to 30 µM
Sequence (P22392 whole entry): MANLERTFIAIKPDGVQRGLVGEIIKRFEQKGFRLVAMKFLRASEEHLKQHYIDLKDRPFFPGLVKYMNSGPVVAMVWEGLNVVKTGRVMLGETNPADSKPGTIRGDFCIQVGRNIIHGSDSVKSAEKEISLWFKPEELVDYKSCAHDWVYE
Activity calls are given as the source filed them.
Field 'call' accepts active, inactive

Example entries and their recorded answers appear below.
>>> df
                                   compound  class_assignment
0  CNC(=O)c1nn(C)c2c1C(C)(C)Cc1cnc(Nc3ccc(N4CCN(C)CC4)cc3)nc1-2 [MILCICLIB]          inactive
1  C#Cc1cccc(Nc2ncnc3cc(OC)c(OCCCCCCC(=O)NO)cc23)c1 [CUDC-101]            active

Field: outcome | Entry: CN1CCN(CCOc2cc(OC3CCOCC3)c3c(Nc4c(Cl)ccc5c4OCO5)ncnc3c2)CC1 [SARACATINIB]
inactive

I would be grateful if you could indicate the recorded call for FC(F)(F)c1ccc(/C=C/c2nc(COc3ccc(CCCCn4ccnn4)cc3)co2)cc1 [MUBRITINIB] .
inactive

Call for entry COc1cc(Nc2ncc3c(n2)-c2ccc(Cl)cc2C(c2c(F)cccc2OC)=NC3)ccc1C(=O)O [ALISERTIB] :
inactive

I would be grateful if you could indicate the recorded call for COc1ncc(-c2ccc3nccc(-c4ccnnc4)c3c2)cc1NS(=O)(=O)c1ccc(F)cc1F [OMIPALISIB] .
inactive

----------
biological target: Phosphatidylinositol 5-phosphate 4-kinase type-2 gamma (Homo sapiens); note: in the data inactive means no Kd found up to 30 µM
Sequence (Q8TBX8 whole entry): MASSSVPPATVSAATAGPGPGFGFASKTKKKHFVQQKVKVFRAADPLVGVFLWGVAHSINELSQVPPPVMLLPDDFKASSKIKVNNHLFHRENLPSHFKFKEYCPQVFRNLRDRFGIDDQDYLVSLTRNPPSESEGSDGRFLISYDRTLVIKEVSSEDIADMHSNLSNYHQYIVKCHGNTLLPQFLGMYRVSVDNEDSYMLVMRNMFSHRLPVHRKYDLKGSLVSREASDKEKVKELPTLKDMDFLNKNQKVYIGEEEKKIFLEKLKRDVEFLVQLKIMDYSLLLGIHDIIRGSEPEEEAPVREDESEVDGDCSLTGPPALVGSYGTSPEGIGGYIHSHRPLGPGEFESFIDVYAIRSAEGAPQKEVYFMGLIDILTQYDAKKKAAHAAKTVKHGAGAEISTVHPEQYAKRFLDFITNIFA
The source made the active and inactive calls.
// allowed return values: 1 = active, 0 = inactive

These recorded examples may help you get a feel for the data.
Molecule	Measured on	Class assignment
C[C@@H](N)c1ccc(C(=O)Nc2ccnc3[nH]ccc23)cc1	Phosphatidylinositol 5-phosphate 4-kinase type-2 gamma (Homo sapiens)	0
Cc1nc2cc(-n3ncc(C(=O)c4cc5ccccc5[nH]4)c3N)ccc2[nH]1	Phosphatidylinositol 5-phosphate 4-kinase type-2 gamma (Homo sapiens)	0

Continue with the next molecule.
Please indicate how the test categorized CCS(=O)(=O)c1cccc(-c2cc(C(=O)NC3CCN(C)CC3)c(C)c3[nH]c4ncc(C)cc4c23)c1 .
0
